System: MYB mRNA
Measurement notes: Gene panel canonical junction qPCR assay, decrease in CJ mRNA, Table 3
Format: cell-based
Assay conditions: decrease in CJ mRNA levels, canonical junction qPCR, gene panel
Endpoint: IC50

| Compound | Endpoint | Result |
| --- | --- | --- |
| COc1nc2c(C(=O)Nc3cn4cc(C)nc(C)c4n3)ccc(N3C[C@H](C)N[C@@H](C)C3)c2s1 | IC50 | 1 to 10 µM |
| COc1nc2c(C(=O)Nc3cc4c(C)nc(C)cn4n3)ccc(N3C[C@H](C)N[C@@H](C)C3)c2s1 | IC50 | 1 to 10 µM |
| Cc1cn2cc(NC(=O)c3ccc(N4CCC(NC5CC5)CC4)c4cc(CF)nn34)nc2c(C)n1 | IC50 | 1 to 10 µM |
| COc1nc2c(C(=O)Nc3cc(F)c4nn(C)cc4c3)ccc(N3CCN[C@@H](C(C)C)C3)c2s1 | IC50 | < 0.1 µM |
| COc1nc2c(C(=O)Nc3cn4c(C)nc(C)cc4n3)ccc(N3C[C@H](C)N[C@@H](C)C3)c2s1 | IC50 | 0.1 to 1 µM |

Let us examine a further case.
Task: Returns the measured IC50 for the input compound. Input: COc1nc2c(C(=O)Nc3cc(F)c4nn(C)cc4c3)ccc(N3C[C@H](C)N(C)[C@@H](C)C3)c2s1
Result: < 0.1 µM

====

# key: entry, value: IC50
Test system: HTT mRNA
Measurement notes: Splicing RT-qPCR assay (THP), Table 2A
Assay type: cell-based
Assay conditions: Table 2A (THP), CJ mRNA decrease, read-out: HTT CJ (decrease in canonical junction mRNA, IC50)
Where a name gives a salt, the structure may show the parent alone.

Worked cases, IC50 given:
| Compound | IC50 |
| --- | --- |
| CCNC1CCN(c2cc(F)c(C(=O)Nc3cn4c(N)c(C)nc4c(F)c3OC)c3nn(C)cc23)CC1 | > 10 µM |
| Cn1cc2cc(NC(=O)c3c(O)cc(N4CC[C@@H](NC5CC5)C4)c4cn(C)nc34)cc(F)c2n1 | > 10 µM |
| CCNC1CCN(c2cc(F)c(C(=O)Nc3cn4cc(C)nc4c(N)c3OC)c3nn(C)cc23)CC1 | 1 to 10 µM |
| COc1cc2nn(C)cc2cc1NC(=O)c1c(F)cc(N2[C@@H]3CC[C@H]2C[C@@H](NC2CC2)C3)c2cn(C)nc12 | > 10 µM |
| COc1cc2nc(C)cn2cc1NC(=O)c1c(F)cc(N2CCC(NC3CC3)CC2)c2cn(C)nc12 | > 10 µM |

Task: Returns the measured IC50 for the input compound. Input: Cc1cc2cc(NC(=O)c3ccc(N4CCC(NC5CC5)CC4)c4cn(C)nc34)sc2c(C)n1
Result: > 10 µM

Task: Moving on to the next compound: Cc1cn2cc(NC(=O)c3ccc(N4CCC(NC5CC5)CC4)c4cc(C)oc34)cc(F)c2n1
Result: 1 to 10 µM

Task: Moving on to the next compound: CCNC1CCN(c2ccc(C(=O)Nc3cc(F)c4nc(COC)cn4c3)c3nn(C)cc23)CC1
Result: > 10 µM

Task: Moving on to the next compound: Cc1cn2cc(NC(=O)c3ccc(N4C[C@@H](C)N[C@@H](C)C4)c4[nH]nnc34)cc(F)c2n1 [Compound 243, hydrochloride]
Result: > 10 µM

Task: Moving on to the next compound: Cc1cn2cc(NC(=O)c3c(F)cc(N4CCNCC4)c4occc34)cc(F)c2n1
Result: > 10 µM

====

System: HTT mRNA
Measurement notes: Splicing RT-qPCR assay, canonical (CJ) and alternative (AJ) junction mRNA, K562 cells
Assay type: cell-based
Assay conditions: Homo sapiens, K562.3 cells, 24 hours, read-out: HTT AJ (AC50, increase in AJ mRNA)
Counter-ions that a name gives are not always drawn.
Endpoint: AC50

Task: Returns the measured AC50 for the input compound. Input: Cc1cn2cc(NC(=O)c3ccc(N4CCC(NC5CC5)CC4)c4cn(C)nc34)nc2c(C)n1
Result: > 10 µM

Task: Moving on to the next compound: Cc1cn2cc(NC(=O)c3ccc(N4C[C@@H](C)N[C@@H](C)C4)c4nn(C)nc34)cc(F)c2n1 [Compound 252, trifluoroacetate]
Result: 0.1 to 1 µM

Task: Moving on to the next compound: CN[C@@H]1CCN(c2ccc(C(=O)Nc3cc(F)c4nc(C)cn4c3)c3nn(C)cc23)[C@@H]1C (single isomer, unassigned)
Result: 1 to 10 µM

Task: Moving on to the next compound: Cc1cn2cc(NC(=O)c3ccc(N4CCNCC4=O)c4[nH]cnc34)cc(F)c2n1
Result: > 10 µM

====

Tested on: HTT mRNA
Measurement notes: Splicing RT-qPCR assay (THP), Table 2A
Assay type: cell-based
Assay conditions: Table 2A (THP), CJ mRNA decrease, read-out: HTT CJ (decrease in canonical junction mRNA, IC50)
# key: entry, value: IC50

| Compound | Endpoint | Result |
| --- | --- | --- |
| CNc1cc(N2CCC(NC3CC3)CC2)c2cn(C)nc2c1C(=O)Nc1cc2cn(C)nc2cc1OC [Compound 435, 2,2,2-trifluoroacetate] | IC50 | > 10 µM |

Task: Returns the measured IC50 for the input compound. Input: CCNC1CCN(c2ccc(C(=O)Nc3cc(Cc4ccccc4)c4nc(C)cn4c3)c3nn(C)cc23)CC1
Result: 1 to 10 µM

Task: Moving on to the next compound: CNCC1CCN(c2ccc(C(=O)Nc3cc4cn(C)nc4cc3OC)c3nn(C)cc23)C1 (stereo not shown)
Result: > 10 µM

Task: Moving on to the next compound: CCNC1CCN(c2ccc(C(=O)Nc3cn4cc(C)nc4c(OC)n3)c3nn(C)cc23)CC1
Result: 0.1 to 1 µM

====

# key: entry, value: IC50
System: HTT mRNA
Measurement notes: Gene panel canonical junction qPCR assay, decrease in CJ mRNA, Table 3
Type: cell-based
Assay conditions: decrease in CJ mRNA levels, canonical junction qPCR, gene panel

Worked cases, IC50 given:
| Structure | Result |
| --- | --- |
| CCNC1CCN(c2cc(Br)c(C(=O)Nc3cn4cc(C)nc4c(F)c3OC)c3nn(C)cc23)CC1 | 0.1 to 1 µM |
| Cc1cn2cc(NC(=O)c3ccc(N4CCC5(CCCN5)CC4)c4cn(C)nc34)nc2c(CNS(C)(=O)=O)n1 | > 10 µM |
| Cc1cn2cc(NC(=O)c3ccc(N(C)C)c4cn(C)nc34)nc2c(CNS(C)(=O)=O)n1 | 1 to 10 µM |

Task: Returns the measured IC50 for the input compound. Input: Cn1cc2cc(NC(=O)c3ccc(N4CCC(NC5CC5)CC4)c4cn(C)nc34)cc(CNc3ncco3)c2n1
Result: > 10 µM

====

# key: entry, value: IC50
System: MYB mRNA
Measurement notes: Gene panel canonical junction qPCR assay, decrease in CJ mRNA, Table 3
Format: cell-based
Assay conditions: decrease in canonical junction (CJ) mRNA, gene panel qPCR, Table 3

| Molecule | Result |
| --- | --- |
| CNCC1CCN(c2ccc(C(=O)Nc3cn4cc(C)nc(C)c4n3)c3nn(C)cc23)C1 (centres unmarked) | 0.1 to 1 µM |
| CNC1CCC(Oc2ccc(C(=O)Nc3cn4cc(C)nc(C)c4n3)c3nn(C)cc23)CC1 (centres unmarked) | 1 to 10 µM |
| CCNC1CCN(c2ccc(C(=O)Nc3nc4c(C)nc(C)cc4n3C)c3nn(C)cc23)CC1 | > 10 µM |

Task: Returns the measured IC50 for the input molecule. Input: CCNC1CCN(c2ccc(C(=O)Nc3cc4cn(C)nc4cc3OC)c3nn(C)cc23)CC1
Result: 0.1 to 1 µM

Task: Moving on to the next molecule: Cc1cn2cc(NC(=O)c3ccc(N4CCC5NCCC5C4)c4cn(C)nc34)cc(F)c2n1 (centres unmarked) [Compound 169, 2,2,2-trifluoroacetate]
Result: 0.1 to 1 µM

Task: Moving on to the next molecule: COc1cc(NC(=O)c2c(F)cc(N3CCC(NC4CC4)CC3)c3cn(C)nc23)cc2cn(C)nc12
Result: 0.1 to 1 µM

Task: Moving on to the next molecule: COc1nc2c(C(=O)Nc3cc(F)c4nc(C)cn4c3)ccc(N3CCC(N)CC3)c2s1
Result: < 0.1 µM

Task: Moving on to the next molecule: Cc1cn2cc(NC(=O)c3ccc(NC4CCCNCC4)c4cn(C)nc34)nc2c(C)n1 (centres unmarked)
Result: > 10 µM

====

System: HTT mRNA
Measurement notes: Gene panel canonical junction qPCR assay, decrease in CJ mRNA, Table 3
Format: cell-based
Assay conditions: decrease in CJ mRNA levels, canonical junction qPCR, gene panel
pIC50: −log10 of the molar value.
Endpoint: pIC50

Worked cases, pIC50 given:
| Compound | Target under test | pIC50 |
| --- | --- | --- |
| COc1nc2c(C(=O)Nc3cccc4c3nnn4C)ccc(N3C[C@H](C)N[C@@H](C)C3)c2s1 [Compound 740] | HTT mRNA | 5.00 to 6.00 |
| Cc1cn2cc(NC(=O)c3ccc(N4CCC(NC5CC5)CC4)c4cn(C)nc34)nc2c(CNc2nccs2)n1 [Compound 860] | HTT mRNA | < 5.00 |
| CNS(=O)(=O)CCc1nc(C)cn2cc(NC(=O)c3ccc(N4CCC(NC5CC5)CC4)c4cn(C)nc34)nc12 [Compound 832] | HTT mRNA | 5.00 to 6.00 |
| COc1nc2c(C(=O)Nc3cn4ccnc4c(F)c3OC)ccc(N3C[C@H](C)N[C@@H](C)C3)c2s1 [Compound 799] | HTT mRNA | < 5.00 |
| COCc1cc2c(N3CCC(NC4CC4)CC3)ccc(C(=O)Nc3cc4cn(C)nc4cc3OC)n2n1 [Compound 621] | HTT mRNA | 5.00 to 6.00 |
| Cc1cn2cc(NC(=O)c3ccc(N4CCC(NC5CC5)CC4)c4cn(C)nc34)nc2c(Cn2ccnn2)n1 [Compound 803] | HTT mRNA | < 5.00 |
| Cc1cn2cc(NC(=O)c3ccc(N4CCC(NC5CC5)CC4)c4cn(C)nc34)nc(CNS(C)(=O)=O)c2n1 [Compound 837] | HTT mRNA | 5.00 to 6.00 |
| Cc1cn2cc(NC(=O)c3ccc(N4CCC(N(C)C5CC5)CC4)c4cn(C)nc34)nc2c(CNS(C)(=O)=O)n1 [Compound 777] | HTT mRNA | 5.00 to 6.00 |
| COc1nc2c(C(=O)Nc3cc(F)c4nn(C)cc4c3)ccc(N3CCN[C@@H](CO)C3)c2s1 [Compound 743, 2,2,2-trifluoroacetate] | HTT mRNA | > 7.00 |
| COc1nc2c(C(=O)Nc3cc(F)c4nn(C)cc4c3)ccc(N3C[C@@H](C)N[C@@H](C)C3)c2s1 [Compound 720] | HTT mRNA | 6.00 to 7.00 |

Task: Returns the measured pIC50 for the input compound. Input: Cc1cn2nc(NC(=O)c3ccc(N4CCC(NC5CC5)CC4)c4cn(C)nc34)cc(CNS(C)(=O)=O)c2n1 [Compound 842]
Result: < 5.00
